- PROCEDURE SUMMARY: Half life in Kunming mouse serum at 10^-2 mol/L by RP-HPLC analysis
- Assay type: ADME, cell-free
For each entry below, report its half-life value.

Past entries and their recorded results:
* NC(=O)[C@H](Cc1ccccc1)NC(=O)[C@H](Cc1ccccc1)NC(=O)[C@@H]1CCCN1C(=O)[C@@H](N)Cc1ccc(O)cc1 [ENDOMORPHIN 2] | 0.212 h
* C=C(C(N)=O)[C@@H](NC(=O)[C@H](Cc1c[nH]c2ccccc12)NC(=O)[C@@H](CCCNC(=N)N)NC(=O)[C@@H](N)Cc1ccc(O)cc1)c1ccco1 | > 5 h
* C=C(C(N)=O)[C@@H](NC(=O)[C@H](Cc1ccccc1)NC(=O)[C@@H](CCCNC(N)=O)NC(=O)[C@@H](N)Cc1ccc(O)cc1)c1ccco1 | > 5 h
* C=C(C(N)=O)[C@@H](NC(=O)[C@H](Cc1ccccc1)NC(=O)[C@@H](CCCNC(=N)N)NC(=O)[C@@H](N)Cc1ccc(O)cc1)c1ccco1 | > 5 h

Please turn your attention to the following entry.
### Prompt Indicate its recorded half-life; the compound in question is C=C(C(N)=O)[C@@H](NC(=O)[C@H](Cc1c[nH]c2ccccc12)NC(=O)[C@@H](CCCNC(N)=O)NC(=O)[C@@H](N)Cc1ccc(O)cc1)c1ccco1
### Response > 5 h
